FYI, the data here is from ChEMBL document CHEMBL4680266.

Tested on: MCF7
protocolDetails: Cytotoxicity against human MCF7 cells assessed as reduction in cell viability by MTT assay
Type: functional, cell-based
assayReadout: IC50 (µM)

[[record]]
structureassmiles = "CCc1ccccc1NC(=O)CSc1nc2ccc(I)cc2c(=O)n1-c1ccc(S(N)(=O)=O)cc1"
assayreadout = "IC50"
assayresult = 3.07


###

testTarget: UniProt:Q16790
protocolDetails: Inhibition of recombinant human carbonic anhydrase 9 incubated for 15 mins prior to testing measured for 10 to 100 secs by phenol red-based stopped-flow CO2 hydration assay
pKi: −log10 of the molar value.
assayReadout: pKi

[[record]]
structureassmiles = "COc1cc(NC(=O)CSc2nc3ccc(I)cc3c(=O)n2-c2ccc(S(N)(=O)=O)cc2)cc(OC)c1"
testtarget = "UniProt:Q16790"
assayresult = 7.54

[[record]]
structureassmiles = "Cc1cccc([N+](=O)[O-])c1NC(=O)CSc1nc2ccc(I)cc2c(=O)n1-c1ccc(S(N)(=O)=O)cc1"
testtarget = "UniProt:Q16790"
assayresult = 7.04

[[record]]
structureassmiles = "NS(=O)(=O)c1ccc(-n2c(SCC(=O)Nc3ccccc3)nc3ccc(I)cc3c2=O)cc1"
testtarget = "UniProt:Q16790"
assayresult = 6.47

[[record]]
structureassmiles = "COc1cc(NC(=O)CSc2nc3ccc(I)cc3c(=O)n2-c2ccc(S(N)(=O)=O)cc2)cc(OC)c1OC"
testtarget = "UniProt:Q16790"
assayresult = 7.52

[[record]]
structureassmiles = "CCc1ccc(NC(=O)CSc2nc3ccc(I)cc3c(=O)n2-c2ccc(S(N)(=O)=O)cc2)cc1"
testtarget = "UniProt:Q16790"
assayresult = 7.17

[[record]]
structureassmiles = "NS(=O)(=O)c1ccc(-n2c(SCC(=O)Nc3ccc([N+](=O)[O-])cc3[N+](=O)[O-])nc3ccc(I)cc3c2=O)cc1"
testtarget = "UniProt:Q16790"
assayresult = 7.33

[[record]]
structureassmiles = "COc1ccc(NC(=O)CSc2nc3ccc(I)cc3c(=O)n2-c2ccc(S(N)(=O)=O)cc2)cc1"
testtarget = "UniProt:Q16790"
assayresult = 7.14

[[record]]
structureassmiles = "NS(=O)(=O)c1ccc(-n2c(S)nc3ccc(I)cc3c2=O)cc1"
testtarget = "UniProt:Q16790"
assayresult = 5.65

[[record]]
structureassmiles = "Cc1cccc(NC(=O)CSc2nc3ccc(I)cc3c(=O)n2-c2ccc(S(N)(=O)=O)cc2)c1"
testtarget = "UniProt:Q16790"
assayresult = 6.61

[[record]]
structureassmiles = "Cc1ccc(NC(=O)CSc2nc3ccc(I)cc3c(=O)n2-c2ccc(S(N)(=O)=O)cc2)cc1"
testtarget = "UniProt:Q16790"
assayresult = 7.04

[[record]]
structureassmiles = "CCOc1ccc(NC(=O)CSc2nc3ccc(I)cc3c(=O)n2-c2ccc(S(N)(=O)=O)cc2)cc1"
testtarget = "UniProt:Q16790"
assayresult = 7.46

[[record]]
structureassmiles = "Cc1cc([N+](=O)[O-])ccc1NC(=O)CSc1nc2ccc(I)cc2c(=O)n1-c1ccc(S(N)(=O)=O)cc1"
testtarget = "UniProt:Q16790"
assayresult = 7.23

[[record]]
structureassmiles = "CCc1cccc(NC(=O)CSc2nc3ccc(I)cc3c(=O)n2-c2ccc(S(N)(=O)=O)cc2)c1"
testtarget = "UniProt:Q16790"
assayresult = 7.26

[[record]]
structureassmiles = "CCc1ccccc1NC(=O)CSc1nc2ccc(I)cc2c(=O)n1-c1ccc(S(N)(=O)=O)cc1"
testtarget = "UniProt:Q16790"
assayresult = 7.54

[[record]]
structureassmiles = "Cc1ccccc1NC(=O)CSc1nc2ccc(I)cc2c(=O)n1-c1ccc(S(N)(=O)=O)cc1"
testtarget = "UniProt:Q16790"
assayresult = 6.37

